Ref: the supplement of paper PMC6555819

# System: LXRb:RXRa (NR concentration 270 nM, RXRa partner concentration 90 nM)
# PROTOCOL_DETAILS: PBM binding z-score (relative to random genomic background probes); higher = stronger binding; sequences stand for … in GC…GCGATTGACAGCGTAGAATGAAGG
Classify by measured PBM binding z-score: Yes if it is equal to or exceeds 0.6, No if it is smaller.

Look over these answered cases.
# SEQUENCE_RECORD, CLASS_LABEL
measured = [
    ("AGAACGAGGGCACGCTGAGCTGATAGCAGAGTAG", "No"),
    ("ATACCAAGGTGATCGTGGGGTCGTTGATACTAAC", "Yes"),
    ("GCTAGCAGGCCATTTGGGTCACTAAATGACGGGC", "No"),
]

*Q* Decide: PBM binding z-score of GCTGGGAGGACAAGGTCAGAGCTTTGTCCGTAGA >= 0.6?
*A* Yes

*Q* Decide: PBM binding z-score of CGAACGAGGGCATGGGTTGATAGCAAATGCCGAT >= 0.6?
*A* No

*Q* Decide: PBM binding z-score of CGAACTAGGTCTGAACAGGACAGTGAAGGATGAT >= 0.6?
*A* No

*Q* Decide: PBM binding z-score of TCAATGAGGTTAAAGATCAGGGAACGTGGCGTCG >= 0.6?
*A* Yes

*Q* Decide: PBM binding z-score of TAGCCTAGGTCATGCAGGCCAGTATAGTGTCGGC >= 0.6?
*A* Yes

*Q* Decide: PBM binding z-score of CCTCGGAGGACAGAAGGGCAGAGCTGTCCGCTTT >= 0.6?
*A* No

*Q* Decide: PBM binding z-score of AATACAGGGTCATCGTAGGCCAGAGGACGCACAG >= 0.6?
*A* Yes

*Q* Decide: PBM binding z-score of TGATATAGGTAAACAGGTGAAAGTCCGTAAGTTA >= 0.6?
*A* No

*Q* Decide: PBM binding z-score of GATACAGGGTCAAGACCAGAGTACGCGTATTGAT >= 0.6?
*A* Yes

*Q* Decide: PBM binding z-score of CAGCCTAGGTCAGGGCCAGTCTAGGAGGAACGTT >= 0.6?
*A* No

*Q* Decide: PBM binding z-score of CCGAGTGGGTTATGGGGCATTCAGGCAACGGTGA >= 0.6?
*A* Yes

*Q* Decide: PBM binding z-score of AGAATGAGGTTACCTAAGATCAGGGAAACGCTTG >= 0.6?
*A* Yes

*Q* Decide: PBM binding z-score of TATACAGGGTCAAAGGCCAGCGTACGAATGTCGA >= 0.6?
*A* Yes

*Q* Decide: PBM binding z-score of TCGAGTAGGTTAGTCGTGGCATTCAGCCAACATA >= 0.6?
*A* No

*Q* Decide: PBM binding z-score of TCTTGTAGATCAGAAGGTTAAGAAAGCTGGCCAA >= 0.6?
*A* Yes

*Q* Decide: PBM binding z-score of CCGACTCGGGCAAAGGTTACCATACTCAGTACGA >= 0.6?
*A* Yes

*Q* Decide: PBM binding z-score of AGAATGAGGTAATACGTAGATCAGGGAAGAAAGT >= 0.6?
*A* No

*Q* Decide: PBM binding z-score of CCGACTGGGGCAGAAAGGTTGCCATACCATCCGG >= 0.6?
*A* No

*Q* Decide: PBM binding z-score of CGAACTAGGTCATTGACAGGAGAGTGAATAGTAA >= 0.6?
*A* Yes

*Q* Decide: PBM binding z-score of TCACGGAGGACACGAAAGGTCAGAGCTCGACATC >= 0.6?
*A* Yes

*Q* Decide: PBM binding z-score of TTACCAAGGTGAAGGTCGTTGCTCCCTCTGTAGA >= 0.6?
*A* Yes

*Q* Decide: PBM binding z-score of CCTGCTAGGTCGTGGTCAGCTAATCTACAGTATG >= 0.6?
*A* No

*Q* Decide: PBM binding z-score of ATACCAAGGTGATCTTGAGGTCGTTGATACTAAC >= 0.6?
*A* Yes

*Q* Decide: PBM binding z-score of CATACTGGGCCAAAAAGGTCATTGATGCCGATAA >= 0.6?
*A* Yes
